# experimental-target: ePNPO R23L/R24L variant (Escherichia coli, UniProt P0AFI7, R23L/R24L)
# Sequence (P0AFI7 whole entry R23L/R24L): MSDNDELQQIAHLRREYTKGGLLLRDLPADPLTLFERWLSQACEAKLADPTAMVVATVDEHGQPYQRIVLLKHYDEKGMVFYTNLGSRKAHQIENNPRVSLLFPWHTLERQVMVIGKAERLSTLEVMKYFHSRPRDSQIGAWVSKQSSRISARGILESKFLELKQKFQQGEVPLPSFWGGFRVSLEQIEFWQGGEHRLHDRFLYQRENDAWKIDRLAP
# procedure-details: biochemical
# Assay type: biochemical
# Design: the entire polypeptide chain is made by 218 residues; made in house; host or cells: E. coli MDS00, pET22b(+)
# condition-details: KX (PLP binding at the active site), global fit (Fig. 8A model)
pKi: −log10 of the molar value.
endpoint-name: pKi

                                   molecule  obs_value
0  Cc1ncc(COP(=O)(O)O)c(C=O)c1O [PLP, Pyridoxal 5’-phosphate]       5.18
